tested on: E. faecalis 29212; test: minimum inhibitory concentration (MIC) against E. faecalis 29212; assay type: cell-based; conditions: E. faecalis 29212
Would you mind labelling by minimum inhibitory concentration, E. faecalis 29212? At or over 60 is yes (1), under is no (0).

Illustrative cases are given below, each with its answer.
Ask: Quick check: does O=P(O)(O)Oc1ccc(Oc2ccc(-c3noc(-c4ccc(F)cc4)n3)cc2)cc1 have minimum inhibitory concentration, E. faecalis 29212 greater than or equal to 60?
Reply: yes (1)

Ask: Assess whether reported minimum inhibitory concentration, E. faecalis 29212 for Fc1ccc(-c2nc(-c3ccc(Oc4ccc(C(F)(F)F)cc4)cc3)no2)cc1 sits at 60 or higher.
Reply: yes (1)

Ask: State whether the measured minimum inhibitory concentration, E. faecalis 29212 reaches 60, counting equality as reaching it, for N/C(=N\OC(=O)c1ccc([N+](=O)[O-])cc1)c1ccc(Oc2ccc(C(F)(F)F)cc2)cc1
Reply: yes (1)

Next:
Ask: I'd appreciate it if you could say whether CC(=O)O/N=C(\N)c1ccc(Oc2ccc(C(F)(F)F)cc2)cc1 has minimum inhibitory concentration, E. faecalis 29212 at least equal to 60.
Reply: no (0)

Ask: Decide: minimum inhibitory concentration, E. faecalis 29212 of O=[N+]([O-])c1ccc(-c2nc(-c3ccc(Oc4ccc(C(F)(F)F)cc4)cc3)no2)cc1 >= 60?
Reply: no (0)

Ask: Determine whether measured minimum inhibitory concentration, E. faecalis 29212 meets or exceeds 60 for Oc1ccc(Oc2ccc(-c3noc(-c4ccc(F)cc4)n3)cc2)cc1
Reply: yes (1)

Ask: // inclusive: minimum inhibitory concentration, E. faecalis 29212 at least 60? input: COc1ccc(-c2noc(-c3ccc(F)cc3)n2)cc1
Reply: yes (1)

====

Reported minimum inhibitory concentration, E. faecalis 29212 values for the following compounds.
system: E. faecalis 29212; test: minimum inhibitory concentration (MIC) against E. faecalis 29212; assay type: cell-based; parameters: unit not given here; details: E. faecalis 29212

These recorded examples may help you get a feel for the data.
Reported minimum inhibitory concentration, E. faecalis 29212 of COc1ccc(/C(N)=N/OC(=O)c2ccc(F)cc2)cc1 : 256

Documented minimum inhibitory concentration, E. faecalis 29212 of Oc1ccc(-c2nc(-c3ccc(Oc4ccc(C(F)(F)F)cc4)cc3)no2)cc1 : 2

The compound listed as Oc1ccc(-c2nc(-c3ccc(Oc4ccccc4)cc3)no2)cc1 has a reported minimum inhibitory concentration, E. faecalis 29212 of 4

Record Fc1ccc(-c2nc(-c3ccccc3)no2)cc1 . Reported minimum inhibitory concentration, E. faecalis 29212: 64

Could you now consider this next compound?
Lab note: N/C(=N\OC(=O)c1ccc(F)cc1)c1ccc(Oc2ccccc2)cc1 gave minimum inhibitory concentration, E. faecalis 29212 of 64
